Assay: in vitro
Conditions: mouse, mouse neuronal cells
Description: Toxicity in mouse neuronal cells assessed as reduction in cell viability incubated for 72 hrs by MTT assay
Quick rule for you: IC50 at 72 h under 20 µM gets TRUE, anything else gets FALSE.

>>> labelclass("NS(=O)(=O)c1ccc(-n2cc(COc3ccc(/C=N/Nc4c5c(nc6ccccc46)CCCC5)cc3)nn2)cc1")
"TRUE"
>>> labelclass("Cc1ccc(-n2cc(COc3ccc(/C=N/Nc4c5c(nc6ccccc46)CCCC5)cc3)nn2)cc1.Cl")
"TRUE"
>>> labelclass("C#CCOc1ccc(/C=N/Nc2c3c(nc4ccccc24)CCCC3)cc1")
"TRUE"
>>> labelclass("O=[N+]([O-])c1cccc(-n2cc(COc3ccc(/C=N/Nc4c5c(nc6ccccc46)CCCC5)cc3)nn2)c1")
"FALSE"
>>> labelclass("C(=N\\Nc1c2c(nc3ccccc13)CCCC2)/c1ccc(OCc2cn(-c3ccccc3)nn2)cc1")
"FALSE"
>>> labelclass("COc1ccc(NC(=S)NNc2c3c(nc4ccccc24)CCCC3)cc1")
"TRUE"
>>> labelclass("O=[N+]([O-])c1ccc(-n2cc(COc3ccc(/C=N/Nc4c5c(nc6ccccc46)CCCC5)cc3)nn2)cc1")
"TRUE"
>>> labelclass("S=C(NNc1c2c(nc3ccccc13)CCCC2)Nc1ccccc1")
"TRUE"

---

Test system: PC-12
Assay: Cytotoxicity against rat PC12 cells assessed as reduction in cell viability up to 300 uM by MTS assay
Assay type: cell-based
readout: Activity (%)

>>> measurement("COc1ccc(-n2cc(COc3ccc(/C=N/Nc4c5c(nc6ccccc46)CCCC5)cc3)nn2)cc1.Cl")
30
>>> measurement("Brc1ccc(-n2cc(COc3ccc(/C=N/Nc4c5c(nc6ccccc46)CCCC5)cc3)nn2)cc1.Cl")
30
